# target: T1, CRBN, Q96SW2;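 note: pooled lentiviral library of zinc finger degron-EGFP fusions in mCherry-positive Jurkat cells, FACS-sorted after compound exposure, with degron abundance counted by next-generation sequencing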
# T1 chain: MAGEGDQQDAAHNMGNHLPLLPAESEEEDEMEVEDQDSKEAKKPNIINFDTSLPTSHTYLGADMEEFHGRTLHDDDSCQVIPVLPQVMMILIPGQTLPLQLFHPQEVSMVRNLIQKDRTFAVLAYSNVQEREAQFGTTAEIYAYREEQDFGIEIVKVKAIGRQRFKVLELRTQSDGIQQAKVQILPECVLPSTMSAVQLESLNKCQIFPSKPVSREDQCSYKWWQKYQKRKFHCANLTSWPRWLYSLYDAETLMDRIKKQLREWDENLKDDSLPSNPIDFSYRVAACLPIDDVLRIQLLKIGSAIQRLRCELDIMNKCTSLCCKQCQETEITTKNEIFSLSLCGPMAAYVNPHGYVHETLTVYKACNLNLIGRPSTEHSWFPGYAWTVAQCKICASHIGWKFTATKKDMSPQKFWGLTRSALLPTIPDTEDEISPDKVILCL
# experimental_protocol: log2 fold change of degron read counts, EGFP-low vs EGFP+ sorted cells (limma voom), compound-induced degradation; higher = more compound-induced degradation of the degron-EGFP fusion; degrons are variants of IKZF1/3 zinc finger 2; compound dose not given here
# condition_info: Jurkat; 18 h; compound: compound 33 (diphenyl IMiD analogue)
Over roughly 8,300 sequences, “log2 fold change of degron read counts, EGFP-low vs EGFP+ sorted cells (limma voom), compound-induced degradation” has its median near -1.1; the highest 2% begin near 3.2. The full list was thinned out, with the highest values kept by preference.
observed_property: log2 fold change of degron read counts

## Input What value of log2 fold change of degron read counts has been recorded for this entry: FNCEICGAKFTQKGNLLRHIKL [46F_47N_49E_50I_52G_53A_54K_55F_67L_, Q9UKT9]
## Output -1.68

## Input What value of log2 fold change of degron read counts has been recorded for this entry: FCCEICGADFTQKGNLLRHIKL [46F_47C_49E_50I_52G_53A_54D_55F_67L_, Q9UKT9]
## Output 0.273

## Input What value of log2 fold change of degron read counts has been recorded for this entry: FDCEICGAKFTQKGNLLRHIKL [46F_47D_49E_50I_52G_53A_54K_55F_67L_, Q9UKT9]
## Output -2.01

## Input What value of log2 fold change of degron read counts has been recorded for this entry: FVCDVCGADFTQKGNLLRHIKL [46F_47V_49D_50V_52G_53A_54D_55F_67L_, Q9UKT9]
## Output -2.16

## Input What value of log2 fold change of degron read counts has been recorded for this entry: FKCEICGAPFTQKGNLLRHIKL [46F_47K_49E_50I_52G_53A_54P_55F_67L_, Q9UKT9]
## Output -0.501

## Input What value of log2 fold change of degron read counts has been recorded for this entry: FYCEICGAKFTQKGNLLRHIKL [46F_47Y_49E_50I_52G_53A_54K_55F_67L_, Q9UKT9]
## Output 1.98

## Input What value of log2 fold change of degron read counts has been recorded for this entry: FCCEICGAPFTQKGNLLRHIKL [46F_47C_49E_50I_52G_53A_54P_55F_67L_, Q9UKT9]
## Output 1.57
